In this section we review reported OD450 values for a set of binders.
target: T1, human MSLN-R2-his protein (human, UniProt Q13421 391-486); experiment: ELISA on coated antigen, antibody 20 nM
T1 construct: it is put last here; also called human MSLN-R2 protein; hMSLN-R2-his; not shown: His tag
T1 sequence (Q13421 other isoform, or with tags, fused parts or gaps): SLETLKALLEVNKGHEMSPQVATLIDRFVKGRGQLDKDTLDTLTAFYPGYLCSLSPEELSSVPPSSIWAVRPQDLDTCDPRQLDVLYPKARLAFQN
Dear colleague, please return just the value in OD, with no unit written.

Worked set:
Tab106 (YP218, hIgG1) (antibody, V domains shown, Control antibody; YP218 VH and VL recombined into human IgG1 CH and CL expression vectors; also called YP218 human IgG1 antibody) VH: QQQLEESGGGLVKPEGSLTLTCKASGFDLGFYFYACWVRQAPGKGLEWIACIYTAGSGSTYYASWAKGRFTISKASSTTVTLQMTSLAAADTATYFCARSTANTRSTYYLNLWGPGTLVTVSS VL: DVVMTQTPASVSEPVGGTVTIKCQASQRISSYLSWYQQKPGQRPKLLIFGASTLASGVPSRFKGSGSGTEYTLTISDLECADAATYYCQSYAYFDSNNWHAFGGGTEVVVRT ... 2.42
S009-F7.33.24 (antibody, human IgG1, kappa, V domains shown, Human-murine chimeric antibody, human IgG1 heavy and kappa light constant regions) VH: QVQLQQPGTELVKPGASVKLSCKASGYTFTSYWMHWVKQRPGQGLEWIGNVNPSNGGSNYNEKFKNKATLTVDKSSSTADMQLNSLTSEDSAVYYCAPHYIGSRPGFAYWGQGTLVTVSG VL: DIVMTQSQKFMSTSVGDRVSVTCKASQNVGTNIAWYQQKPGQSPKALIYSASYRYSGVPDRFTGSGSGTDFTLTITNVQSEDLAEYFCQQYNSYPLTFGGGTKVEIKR ... 0.04
S009-F7.67.12 (antibody, human IgG1, kappa, V domains shown, Human-murine chimeric antibody, human IgG1 heavy and kappa light constant regions) VH: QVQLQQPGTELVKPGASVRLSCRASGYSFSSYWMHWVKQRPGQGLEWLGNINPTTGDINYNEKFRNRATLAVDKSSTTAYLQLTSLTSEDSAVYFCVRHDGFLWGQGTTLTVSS VL: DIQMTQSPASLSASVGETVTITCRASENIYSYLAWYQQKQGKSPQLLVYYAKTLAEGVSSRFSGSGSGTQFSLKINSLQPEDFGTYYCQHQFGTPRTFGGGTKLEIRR ... 0.07
S009-F7.2.3 (antibody, human IgG1, kappa, V domains shown, Human-murine chimeric antibody, human IgG1 heavy and kappa light constant regions) VH: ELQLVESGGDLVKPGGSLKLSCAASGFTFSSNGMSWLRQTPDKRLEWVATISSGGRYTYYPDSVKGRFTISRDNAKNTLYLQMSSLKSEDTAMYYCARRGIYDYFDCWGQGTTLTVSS VL: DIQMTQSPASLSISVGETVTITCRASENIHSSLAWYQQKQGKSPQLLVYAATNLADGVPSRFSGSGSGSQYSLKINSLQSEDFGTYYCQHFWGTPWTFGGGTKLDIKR ... 2.38

Next item in the queue.
Form field OD450, entry S009-F7.66.12 (antibody, human IgG1, kappa, V domains shown, Human-murine chimeric antibody, human IgG1 heavy and kappa light constant regions) VH: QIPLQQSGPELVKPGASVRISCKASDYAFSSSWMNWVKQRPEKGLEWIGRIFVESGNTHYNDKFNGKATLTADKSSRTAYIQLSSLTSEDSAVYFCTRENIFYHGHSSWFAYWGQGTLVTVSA VL: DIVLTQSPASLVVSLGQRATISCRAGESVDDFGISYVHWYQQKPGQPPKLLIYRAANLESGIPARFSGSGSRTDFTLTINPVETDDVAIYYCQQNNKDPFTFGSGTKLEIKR : 0.09

Data provenance: patent US20250250357A1
